All values here come from the supplement of paper PMC10307832.

System: NCI-H2009
Experiment: relative viability (nuclei count vs DMSO), 5 days (fraction); higher = more cells survive
Conditions: first compound 0.001 µM
reported-property: relative viability
Could you keep your reply to the number by itself?

Prompt: Recorded relative viability of Cc1cn(-c2cc(NC(=O)c3ccc(C)c(Nc4nccc(-c5cccnc5)n4)c3)cc(C(F)(F)F)c2)cn1 [Nilotinib] + CC(C)C[C@H](NC(=O)[C@H](Cc1ccccc1)NC(=O)c1cnccn1)B(O)O [Bortezomib] (partner 0.002 µM) , please.
Completion: 0.937

Prompt: What do we get for Cc1cn(-c2cc(NC(=O)c3ccc(C)c(Nc4nccc(-c5cccnc5)n4)c3)cc(C(F)(F)F)c2)cn1 [Nilotinib] + Nc1ncn([C@H]2C[C@H](O)[C@@H](CO)O2)c(=O)n1 [Decitabine] (partner 2 µM) ?
Completion: 0.372

Prompt: What do we get for Cc1cn(-c2cc(NC(=O)c3ccc(C)c(Nc4nccc(-c5cccnc5)n4)c3)cc(C(F)(F)F)c2)cn1 [Nilotinib] + CC(=O)Nc1cccc(-n2c(=O)n(C3CC3)c(=O)c3c(Nc4ccc(I)cc4F)n(C)c(=O)c(C)c32)c1 [Trametinib] (partner 0.02 µM) ?
Completion: 0.232

Prompt: What do we get for Cc1cn(-c2cc(NC(=O)c3ccc(C)c(Nc4nccc(-c5cccnc5)n4)c3)cc(C(F)(F)F)c2)cn1 [Nilotinib] + C[C@]1(O)C[C@@H](c2nc(-c3ccc4ccc(-c5ccccc5)nc4c3)c3c(N)nccn32)C1 [Linsitinib] (partner 1 µM) ?
Completion: 1.07

====

System: NCI-H23
Assay: relative viability (nuclei count vs DMSO), 5 days (fraction); higher = more cells survive
Conditions: first compound 0.8 µM
Would you mind telling me the reported relative viability of each entry?
Could you keep your reply to the number by itself?

Prompt: Recorded relative viability of Nc1cccc2c1CN(C1CCC(=O)NC1=O)C2=O (centres undefined) [Lenalidomide] + CS(=O)(=O)N1CCN(Cc2cc3nc(-c4cccc5[nH]ncc45)nc(N4CCOCC4)c3s2)CC1 [Pictilisib] (partner 1 µM) , please.
Completion: 0.576

Prompt: What do we get for Nc1cccc2c1CN(C1CCC(=O)NC1=O)C2=O (centres undefined) [Lenalidomide] + COc1cccc2cc(-c3nc([C@H]4CC[C@H](C(=O)O)CC4)n4ncnc(N)c34)[nH]c12 [OSI-027] (partner 0.5 µM) ?
Completion: 0.499

Prompt: What do we get for Nc1cccc2c1CN(C1CCC(=O)NC1=O)C2=O (centres undefined) [Lenalidomide] + Cc1cc(Nc2cc(N3CCN(C)CC3)nc(Sc3ccc(NC(=O)C4CC4)cc3)n2)n[nH]1 [Tozasertib] (partner 0.1 µM) ?
Completion: 0.343

Prompt: What do we get for Nc1cccc2c1CN(C1CCC(=O)NC1=O)C2=O (centres undefined) [Lenalidomide] + CC1(C)CCC(c2ccc(Cl)cc2)=C(CN2CCN(c3ccc(C(=O)NS(=O)(=O)c4ccc(N[C@H](CCN5CCOCC5)CSc5ccccc5)c(S(=O)(=O)C(F)(F)F)c4)cc3)CC2)C1 [Navitoclax] (partner 0.5 µM) ?
Completion: 0.917

====

Would you mind telling me the reported relative viability of each entry?
Test system: NCI-H2126
Experiment: relative viability (nuclei count vs DMSO), 5 days (fraction); higher = more cells survive
Conditions: first compound 0.6325 µM
Could you keep your reply to the number by itself?

Prompt: Recorded relative viability of Cc1csc(=NC2CCCCC2)n1/N=C/c1ccc(O)c(O)c1O [MIM1] + CC(=O)c1c(C)c2cnc(Nc3ccc(N4CCNCC4)cn3)nc2n(C2CCCC2)c1=O [Palbociclib] (partner 0.5 µM) , please.
Completion: 0.388

Prompt: What do we get for Cc1csc(=NC2CCCCC2)n1/N=C/c1ccc(O)c(O)c1O [MIM1] + Nc1ncn([C@H]2C[C@H](O)[C@@H](CO)O2)c(=O)n1 [Decitabine] (partner 2 µM) ?
Completion: 0.628

Prompt: What do we get for Cc1csc(=NC2CCCCC2)n1/N=C/c1ccc(O)c(O)c1O [MIM1] + Nc1nc2[nH]cc(CCc3ccc(C(=O)N[C@@H](CCC(=O)O)C(=O)O)cc3)c2c(=O)[nH]1 [Pemetrexed] (partner 0.2 µM) ?
Completion: 0.67

Prompt: What do we get for Cc1csc(=NC2CCCCC2)n1/N=C/c1ccc(O)c(O)c1O [MIM1] + CS(=O)(=O)CCNCc1ccc(-c2ccc3ncnc(Nc4ccc(OCc5cccc(F)c5)c(Cl)c4)c3c2)o1 [Lapatinib] (partner 2 µM) ?
Completion: 0.72

Prompt: What do we get for Cc1csc(=NC2CCCCC2)n1/N=C/c1ccc(O)c(O)c1O [MIM1] + CC(=O)Nc1cccc(-n2c(=O)n(C3CC3)c(=O)c3c(Nc4ccc(I)cc4F)n(C)c(=O)c(C)c32)c1 [Trametinib] (partner 0.02 µM) ?
Completion: 0.579

====

Tested on: NCI-H1650
Test: relative viability (nuclei count vs DMSO), 5 days (fraction); higher = more cells survive
Details: first compound 0.03162 µM
reported-property: relative viability

Prompt: Recorded relative viability of Cc1cn(-c2cc(NC(=O)c3ccc(C)c(Nc4nccc(-c5cccnc5)n4)c3)cc(C(F)(F)F)c2)cn1 [Nilotinib] + COc1cccc2cc(-c3nc([C@H]4CC[C@H](C(=O)O)CC4)n4ncnc(N)c34)[nH]c12 [OSI-027] (partner 0.5 µM) , please.
Completion: 0.464

Prompt: What do we get for Cc1cn(-c2cc(NC(=O)c3ccc(C)c(Nc4nccc(-c5cccnc5)n4)c3)cc(C(F)(F)F)c2)cn1 [Nilotinib] + O=C(c1cc(Cc2n[nH]c(=O)c3ccccc23)ccc1F)N1CCN(C(=O)C2CC2)CC1 [Olaparib] (partner 8 µM) ?
Completion: 0.756

====

Test system: NCI-H1793
Assay: relative viability (nuclei count vs DMSO), 5 days (fraction); higher = more cells survive
Settings: first compound 0.03162 µM
reported-property: relative viability
Could you keep your reply to the number by itself?

Prompt: Recorded relative viability of Cc1cn(-c2cc(NC(=O)c3ccc(C)c(Nc4nccc(-c5cccnc5)n4)c3)cc(C(F)(F)F)c2)cn1 [Nilotinib] + CC(=O)c1c(C)c2cnc(Nc3ccc(N4CCNCC4)cn3)nc2n(C2CCCC2)c1=O [Palbociclib] (partner 0.5 µM) , please.
Completion: 0.281

Prompt: What do we get for Cc1cn(-c2cc(NC(=O)c3ccc(C)c(Nc4nccc(-c5cccnc5)n4)c3)cc(C(F)(F)F)c2)cn1 [Nilotinib] + O=C(c1cc(Cc2n[nH]c(=O)c3ccccc23)ccc1F)N1CCN(C(=O)C2CC2)CC1 [Olaparib] (partner 8 µM) ?
Completion: 0.706

====

Tested on: NCI-H838
Assay: relative viability (nuclei count vs DMSO), 5 days (fraction); higher = more cells survive
Settings: first compound 0.02 µM
Sorting guide: entries reporting relative viability beneath 0.6 go in the label 1 pile, the rest go in the label 0 pile.

Prompt: Would you kindly verify if relative viability of CN1CCN(CCOc2cc(OC3CCOCC3)c3c(Nc4c(Cl)ccc5c4OCO5)ncnc3c2)CC1 [Saracatinib] + N=C(N)NC(=N)NCCc1ccccc1 [Phenformin] (partner 250 µM) is strictly less than 0.6?
Completion: label 0

Prompt: What do we get for CN1CCN(CCOc2cc(OC3CCOCC3)c3c(Nc4c(Cl)ccc5c4OCO5)ncnc3c2)CC1 [Saracatinib] + CS(=O)(=O)CCNCc1ccc(-c2ccc3ncnc(Nc4ccc(OCc5cccc(F)c5)c(Cl)c4)c3c2)o1 [Lapatinib] (partner 2 µM) ?
Completion: label 0

Prompt: What do we get for CCNC(=O)c1noc(-c2cc(C(C)C)c(O)cc2O)c1-c1ccc(CN2CCOCC2)cc1 [Luminespib] + NC(=O)Nc1cc(-c2cccc(F)c2)sc1C(=O)N[C@H]1CCCNC1 [AZD7762] (partner 0.2 µM) ?
Completion: label 0

Prompt: What do we get for CN1CCN(CCOc2cc(OC3CCOCC3)c3c(Nc4c(Cl)ccc5c4OCO5)ncnc3c2)CC1 [Saracatinib] + Cc1cc(Nc2cc(N3CCN(C)CC3)nc(Sc3ccc(NC(=O)C4CC4)cc3)n2)n[nH]1 [Tozasertib] (partner 0.1 µM) ?
Completion: label 1

Prompt: What do we get for CCNC(=O)c1noc(-c2cc(C(C)C)c(O)cc2O)c1-c1ccc(CN2CCOCC2)cc1 [Luminespib] + C[C@@H](Oc1cc(-c2cnn(C3CCNCC3)c2)cnc1N)c1c(Cl)ccc(F)c1Cl [Crizotinib] (partner 1 µM) ?
Completion: label 0

Prompt: What do we get for CN1CCN(CCOc2cc(OC3CCOCC3)c3c(Nc4c(Cl)ccc5c4OCO5)ncnc3c2)CC1 [Saracatinib] + Nc1nc2[nH]cc(CCc3ccc(C(=O)N[C@@H](CCC(=O)O)C(=O)O)cc3)c2c(=O)[nH]1 [Pemetrexed] (partner 0.2 µM) ?
Completion: label 1

Prompt: What do we get for CCNC(=O)c1noc(-c2cc(C(C)C)c(O)cc2O)c1-c1ccc(CN2CCOCC2)cc1 [Luminespib] + O=C(c1cc(Cc2n[nH]c(=O)c3ccccc23)ccc1F)N1CCN(C(=O)C2CC2)CC1 [Olaparib] (partner 8 µM) ?
Completion: label 0

Prompt: What do we get for CN1CCN(CCOc2cc(OC3CCOCC3)c3c(Nc4c(Cl)ccc5c4OCO5)ncnc3c2)CC1 [Saracatinib] + COc1cc2c(Oc3ccc(NC(=O)C4(C(=O)Nc5ccc(F)cc5)CC4)cc3F)ccnc2cc1OCCCN1CCOCC1 [Foretinib] (partner 0.25 µM) ?
Completion: label 0

Prompt: What do we get for CCNC(=O)c1noc(-c2cc(C(C)C)c(O)cc2O)c1-c1ccc(CN2CCOCC2)cc1 [Luminespib] + C[C@]1(O)C[C@@H](c2nc(-c3ccc4ccc(-c5ccccc5)nc4c3)c3c(N)nccn32)C1 [Linsitinib] (partner 1 µM) ?
Completion: label 0

Prompt: What do we get for CN1CCN(CCOc2cc(OC3CCOCC3)c3c(Nc4c(Cl)ccc5c4OCO5)ncnc3c2)CC1 [Saracatinib] + O=C(CCCCCCC(=O)Nc1ccccc1)NO [Vorinostat] (partner 1 µM) ?
Completion: label 0

Prompt: What do we get for CCNC(=O)c1noc(-c2cc(C(C)C)c(O)cc2O)c1-c1ccc(CN2CCOCC2)cc1 [Luminespib] + Cc1cc(Nc2cc(N3CCN(C)CC3)nc(Sc3ccc(NC(=O)C4CC4)cc3)n2)n[nH]1 [Tozasertib] (partner 0.1 µM) ?
Completion: label 1
